# Test Summary: gradient 5% acetonitrile 3 min, to 50% in 2 min, to 85% in 15 min, held 3 min, 100 µL/min
# Condition: column: Zorbax Extend-C18 2.1 x 50 mm; eluents: water / acetonitrile, 0.1% formic acid
Test Readout: RP-LC retention time (s)

CCOC(=O)CCC(=O)Nc1ncc(C#N)s1: 667
CCN(CC)C(=O)c1cnc2snc(C)c2c1N1CCC(C(=O)Nc2cc(OC)c(OC)c(OC)c2)CC1: 810
O=C(NCCc1ccccc1)C1=Cc2ccccc2OC=C1: 1010
COc1ccc(NC(=O)N(C)CCc2noc(COc3ccc(F)cc3)n2)cc1: 692
CCOc1cccc(CNC(=O)c2cn3cc(Cl)ccc3n2)c1: 886
COc1ccc(/C=C/C(=O)c2ccc(OC)cc2OC)cc1: 1100
Cc1ccc(S(=O)(=O)N2C(=O)CCC2C(=O)N(C)C2CCCCC2)cc1 (configuration not stated): 916

---

# Test Summary: gradient 5% acetonitrile 3 min, to 50% in 2 min, to 85% in 15 min, held 3 min, 100 µL/min
# Condition: column: Zorbax Extend-C18 2.1 x 50 mm; eluents: water / acetonitrile, 0.1% formic acid
Test Readout: RP-LC retention time (s)

c1ccc(-c2nc3ccccn3c2Nc2ccc3c(c2)OCCO3)cc1: 665
Cn1nc(CC(=O)Nc2ccccc2Br)c2ccccc2c1=O: 774
Cc1ccc(-c2cc3n(n2)CCCN(C(=O)c2cccc(C#N)c2)C3)cc1: 862
COCCCNC(=O)N1CCCN(C2=NS(=O)(=O)C(c3ccc(C)cc3)=C2C)CC1: 730
O=C(NCCC1CCN(C(=O)Nc2cc(F)cc(F)c2)CC1)c1ccsc1: 688
O=C(Nc1cccc(N2CCCS2(=O)=O)c1)Nc1cccs1: 696
CCCn1c(C)cnc1C1CN(S(=O)(=O)c2ccc(F)c(Cl)c2)C1: 706
CCc1noc(NC(C)=O)c1-c1ccc(C)c(S(=O)(=O)Nc2cc(OC)c(OC)c(OC)c2)c1: 761
COc1ccc(NC(=O)CCOc2ccccc2)cc1: 763
CSc1ccccc1NC(=O)c1cc2nc(C)ccc2o1: 756
O=C(CN1CC=C(c2cnn(-c3ccc(F)cc3)c2)CC1)N1CCCCC1: 661

---

# Test Summary: gradient 5% acetonitrile 3 min, to 50% in 2 min, to 85% in 15 min, held 3 min, 100 µL/min
# Condition: column: Zorbax Extend-C18 2.1 x 50 mm; eluents: water / acetonitrile, 0.1% formic acid
Test Readout: RP-LC retention time (s)

CC(C)Cn1c(=O)c(C(=O)NC2CCCC2)nc2cccnc21: 936
O=C(c1ccco1)N1CCC(F)(C(=O)N2CCCC2)CC1: 653
Cc1cnc(-c2cc(N3CCN(C(=O)CCS(C)(=O)=O)CC3)ncc2Cl)c(C)c1: 728
CCOC(=O)CSc1nc2ccccc2n1C: 670
O=C(Cc1ccc(Cl)cc1)NC1CCN(c2cc(-c3cccs3)[nH]n2)C1 (configuration not stated): 749
COC(=O)C(CCSC)NC(=O)c1cc2c(n(-c3ccc(Cl)cc3)c1=O)CC(C)(C)CC2=O (configuration not stated): 1040
Cc1cc(C)cc(S(=O)(=O)N2CCC(C(=O)NCc3csc(-c4ccccc4)n3)CC2)c1: 990
CSc1ccc(CNC(=O)c2ccc3c(c2)NC(=O)C2CCCCN32)cc1 (configuration not stated): 850
COc1ccc(-c2cc3nn(CC(=O)NCc4ccc(F)cc4)c(=O)n3c(C)n2)cc1: 880
COc1ccc(-c2noc(C3CCCN3C(=O)Nc3ccc4c(c3)OCO4)n2)cc1 (configuration not stated): 884
O=C(NCc1ccc2c(c1)OCO2)C1CCN(CCc2c[nH]c3ncccc23)CC1: 577
O=C(c1ccccc1Br)N1CCN(Cc2nc(-c3ccccc3)cs2)CC1: 773

Cited source: the METLIN SMRT retention time set (Domingo-Almenara et al. 2019)
